MEASURED_TARGET: C3b (Homo sapiens, UniProt P01024)
Construct: Biotinylated C3b was captured site-specifically on a streptavidin chip
Sequence (P01024 23-667 limits assumed): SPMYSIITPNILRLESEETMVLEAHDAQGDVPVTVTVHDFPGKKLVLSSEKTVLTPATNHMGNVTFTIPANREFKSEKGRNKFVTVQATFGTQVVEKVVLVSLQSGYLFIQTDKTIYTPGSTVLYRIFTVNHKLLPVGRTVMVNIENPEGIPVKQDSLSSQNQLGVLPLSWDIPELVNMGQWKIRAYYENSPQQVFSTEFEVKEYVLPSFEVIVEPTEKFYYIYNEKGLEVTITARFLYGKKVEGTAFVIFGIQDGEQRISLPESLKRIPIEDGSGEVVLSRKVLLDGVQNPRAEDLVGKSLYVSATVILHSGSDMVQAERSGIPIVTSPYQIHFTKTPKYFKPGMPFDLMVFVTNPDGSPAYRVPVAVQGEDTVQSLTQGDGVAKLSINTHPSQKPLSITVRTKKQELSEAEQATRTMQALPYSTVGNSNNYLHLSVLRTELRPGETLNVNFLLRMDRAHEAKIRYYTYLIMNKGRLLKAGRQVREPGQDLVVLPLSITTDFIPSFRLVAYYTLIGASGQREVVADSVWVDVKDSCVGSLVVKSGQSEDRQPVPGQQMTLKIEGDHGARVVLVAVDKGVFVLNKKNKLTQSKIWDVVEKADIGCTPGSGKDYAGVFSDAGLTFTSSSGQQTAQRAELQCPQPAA
Sequence (P01024 749-1663 partner limits assumed): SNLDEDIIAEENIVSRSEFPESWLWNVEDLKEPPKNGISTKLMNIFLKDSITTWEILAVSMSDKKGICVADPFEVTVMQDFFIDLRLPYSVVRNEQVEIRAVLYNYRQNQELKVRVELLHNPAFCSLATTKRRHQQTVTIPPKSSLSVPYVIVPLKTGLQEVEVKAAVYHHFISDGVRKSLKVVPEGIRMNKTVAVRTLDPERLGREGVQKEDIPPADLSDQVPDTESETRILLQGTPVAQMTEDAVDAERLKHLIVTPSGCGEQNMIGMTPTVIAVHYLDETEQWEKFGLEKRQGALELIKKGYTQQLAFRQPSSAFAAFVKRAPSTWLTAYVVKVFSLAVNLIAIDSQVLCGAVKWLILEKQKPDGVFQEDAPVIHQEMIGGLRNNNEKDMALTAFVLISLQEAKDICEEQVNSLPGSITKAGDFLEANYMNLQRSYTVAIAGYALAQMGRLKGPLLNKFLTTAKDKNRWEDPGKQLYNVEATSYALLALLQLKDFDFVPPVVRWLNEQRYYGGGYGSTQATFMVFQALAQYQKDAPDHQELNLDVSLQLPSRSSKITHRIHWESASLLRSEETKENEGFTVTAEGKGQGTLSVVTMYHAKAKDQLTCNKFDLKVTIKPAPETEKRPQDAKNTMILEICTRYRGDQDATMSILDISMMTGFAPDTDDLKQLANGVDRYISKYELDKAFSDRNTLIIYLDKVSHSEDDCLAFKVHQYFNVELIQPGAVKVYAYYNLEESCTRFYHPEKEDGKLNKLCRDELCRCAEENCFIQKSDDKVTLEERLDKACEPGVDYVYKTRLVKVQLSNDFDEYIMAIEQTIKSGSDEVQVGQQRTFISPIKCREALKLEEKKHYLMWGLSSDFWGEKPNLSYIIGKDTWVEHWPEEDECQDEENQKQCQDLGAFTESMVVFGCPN
TEST: SPR kinetic analysis of binding to immobilized C3b (Biacore, single cycle kinetics)
ASSAY_CONDITIONS: Table 1, N-terminal analogs; read-out: KD: binding constant from SPR
Bridge positions count the residues as written; N and C are the ends. Square brackets hold non-standard residues; d marks the D form. Peptide text beside a SMILES is read from it. Trp(1-Me) = Cn1cc(C[C@H](N)C(=O)O)c2ccccc21; NMeI = CC[C@H](C)[C@H](NC)C(=O)O; Sar = CNCC(=O)O
PARAMETER_MEASURED: Kd (nM)
Give a bare numeral; the unit nM is implied.

CC[C@H](C)[C@H](NC(=O)[C@@H](N)Cc1c[nH]c2ccccc12)C(=O)N[C@H]1CSSC[C@@H](C(=O)N(C)[C@H](C(N)=O)[C@@H](C)CC)NC(=O)[C@H](CCCNC(=N)N)NC(=O)[C@H](Cc2c[nH]cn2)NC(=O)[C@H](C)NC(=O)CN(C)C(=O)[C@H](Cc2c[nH]c3ccccc23)NC(=O)[C@H](CC(=O)O)NC(=O)[C@H](CCC(N)=O)NC(=O)[C@H](Cc2cn(C)c3ccccc23)NC(=O)[C@H](C(C)C)NC1=O [compound 7] (H-WICV[Trp(1-Me)]QDW[Sar]AHRC[NMeI]-NH2; disulfide 3-13) ... 2.2

Here is another compound to look at.
Prompt: In one line, give reported Kd of the entry CC[C@H](C)[C@H](NC(=O)[C@@H](N)CCCNC(=N)N)C(=O)N[C@H]1CSSC[C@@H](C(=O)N(C)[C@H](C(N)=O)[C@@H](C)CC)NC(=O)[C@H](CCCNC(=N)N)NC(=O)[C@H](Cc2c[nH]cn2)NC(=O)[C@H](C)NC(=O)CN(C)C(=O)[C@H](Cc2c[nH]c3ccccc23)NC(=O)[C@H](CC(=O)O)NC(=O)[C@H](CCC(N)=O)NC(=O)[C@H](Cc2cn(C)c3ccccc23)NC(=O)[C@H](C(C)C)NC1=O [compound 6] (H-RICV[Trp(1-Me)]QDW[Sar]AHRC[NMeI]-NH2; disulfide 3-13) .
Response: 1.7
